# test.target: T1, his-tagged ROR2 extracellular domain (ROR2-ECD, G&P Biosciences, cat. no. FCL0192) (human, UniProt Q01974 34-403)
# T1 construct: Bought protein; also called human ROR2-ECD; recombinant human ROR2-ECD; not shown: his tag
# T1 sequence (Q01974 34-403): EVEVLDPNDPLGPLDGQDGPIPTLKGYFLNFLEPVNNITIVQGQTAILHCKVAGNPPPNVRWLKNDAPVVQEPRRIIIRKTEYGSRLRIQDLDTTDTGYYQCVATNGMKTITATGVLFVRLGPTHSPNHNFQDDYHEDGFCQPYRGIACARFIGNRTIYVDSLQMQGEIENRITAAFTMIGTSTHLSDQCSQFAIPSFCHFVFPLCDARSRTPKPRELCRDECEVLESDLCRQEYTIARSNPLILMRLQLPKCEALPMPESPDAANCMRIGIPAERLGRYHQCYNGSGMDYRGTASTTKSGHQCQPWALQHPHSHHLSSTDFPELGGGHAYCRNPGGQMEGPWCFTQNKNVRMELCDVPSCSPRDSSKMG
# procedure.summary: BLI (Octet), antibody on anti-human IgG Fc sensor, ROR2-ECD 1.56-100 nM as analyte
The binders listed here are annotated with their kon.
test.readout: kon (M⁻¹ s⁻¹)

{"binder": "IgG1-ROR2-A-HC2LC1-FEAR (antibody, V domains shown, Humanized variant) VH: QSVLESGGGLVQPGGSLRLSCTVSGFSLSSYSMSWVRQAPGKGLEWIGVIYVNSKTWYANWAKGRFTISKTSTTVYLQMNSLRAEDTATYFCARGDAGYTTNSWLWGQGTLVTVSS VL: AFELTQSPSSLSASVGDRVTITCQASESIDNYCSWYQQKPGKAPKLLIYQAFKLASGVPSRFRGSGSGTDFTLTISSLQSEDFATYYCQSYSGISTTAFGGGTEVVIK", "test.readout": "kon", "endpoint.value": 510000}
{"binder": "IgG1-ROR2-A-HC5LC2-FEAR (antibody, V domains shown, Humanized variant) VH: EVQLLESGGGLVQPGGSLRLSCAASGFSLSSYSMSWVRQAPGKGLEWIGVIYVNSKTWYANWAKGRFTISKDNSKNTVYLQMNSLRAEDTATYYCARGDAGYTTNSWLWGQGTLVTVSS VL: AFELTQSPSSLSASVGDRVTITCQASESIDNYLSWYQQKPGKAPKLLIYQAFKLASGVPSRFRGSGSGTDFTLTISSLQSEDFATYYCQSYSGISTTAFGGGTEVVIK", "test.readout": "kon", "endpoint.value": 550000}
{"binder": "chIgG1-ROR2-A-FEAR (antibody, V domains shown, Full-length IgG1 with L234F, L235E, D265A, K409R; also called chIgG1-ROR2-A (with the Fc mutations FEAR)) VH: QSVEESGGRLVTPGTPLTLTCTVSGFSLSSYSMSWVRQAPGKGLEWIGVIYVNSKTWYANWAKGRFTISKTSTTVDLKITSPTTEDTATYFCARGDAGYTTNSWLWGPGTLVTVSS VL: AFELTQTPASVSEPVGGTVTIKCQASESIDNYCSWYQQKPGQPPKLLIYQAFKLASGVPSRFRGSGSGTQFTLTISDLESDDAATYYCQSYSGISTTAFGGGTEVVVKR", "test.readout": "kon", "endpoint.value": 720000}
{"binder": "IgG1-ROR2-A-HC2LC2-FEAR (antibody, V domains shown, Humanized variant) VH: QSVLESGGGLVQPGGSLRLSCTVSGFSLSSYSMSWVRQAPGKGLEWIGVIYVNSKTWYANWAKGRFTISKTSTTVYLQMNSLRAEDTATYFCARGDAGYTTNSWLWGQGTLVTVSS VL: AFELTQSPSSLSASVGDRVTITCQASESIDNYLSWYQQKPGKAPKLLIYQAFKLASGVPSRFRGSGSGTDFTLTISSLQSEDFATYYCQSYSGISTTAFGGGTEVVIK", "test.readout": "kon", "endpoint.value": 510000}
{"binder": "IgG1-ROR2-A-HC4LC1-FEAR (antibody, V domains shown, Humanized variant) VH: EVQLLESGGGLVQPGGSLRLSCTVSGFSLSSYSMSWVRQAPGKGLEWIGVIYVNSKTWYANWAKGRFTISKDNSKNTVYLQMNSLRAEDTATYYCARGDAGYTTNSWLWGQGTLVTVSS VL: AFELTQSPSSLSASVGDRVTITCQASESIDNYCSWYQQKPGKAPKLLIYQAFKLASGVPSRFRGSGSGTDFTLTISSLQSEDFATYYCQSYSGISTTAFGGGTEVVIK", "test.readout": "kon", "endpoint.value": 540000}
{"binder": "IgG1-ROR2-A-HC7LC1-FEAR (antibody, V domains shown, Humanized variant) VH: EVQLLESGGGLVQPGGSLRLSCAASGFSLSSYSMSWVRQAPGKGLEWIGVIYVNSKTWYADSVKGRFTISKDNSKNTVYLQMNSLRAEDTATYYCARGDAGYTTNSWLWGQGTLVTVSS VL: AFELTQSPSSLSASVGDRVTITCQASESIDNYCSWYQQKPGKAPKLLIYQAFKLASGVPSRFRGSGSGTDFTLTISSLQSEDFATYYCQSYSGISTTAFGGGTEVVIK", "test.readout": "kon", "endpoint.value": 540000}
{"binder": "IgG1-ROR2-A-HC5LC1-FEAR (antibody, V domains shown, Humanized variant) VH: EVQLLESGGGLVQPGGSLRLSCAASGFSLSSYSMSWVRQAPGKGLEWIGVIYVNSKTWYANWAKGRFTISKDNSKNTVYLQMNSLRAEDTATYYCARGDAGYTTNSWLWGQGTLVTVSS VL: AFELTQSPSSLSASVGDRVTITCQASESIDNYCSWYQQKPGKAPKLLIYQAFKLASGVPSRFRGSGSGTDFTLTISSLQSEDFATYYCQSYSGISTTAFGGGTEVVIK", "test.readout": "kon", "endpoint.value": 540000}

Numbers sourced from patent US20230365714A1.
